test system: biotinyl-Val-oxazolone; assay: self-aminoacylation, catalytic enhancement (BVO) (fold over background); higher = more active; k-Seq, kA / k0A0; sequences stand for … in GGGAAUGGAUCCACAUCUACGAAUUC…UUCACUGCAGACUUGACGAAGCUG
Fewer inactive variants are shown than the library holds.
Where self-aminoacylation equals or exceeds 3, the correct label is 1; where it does not, the label is 0.

Q: Textbook exercise: given the entry AUGUUCGCUAAUAGUCGCAAG [Fam3.1 aminoacylation ribozyme variant] , state whether its self-aminoacylation is greater than or equal to 3.
Ans: 0

Q: // inclusive: self-aminoacylation at least 3? input: AUGCACCUAUGUCAUCGGGUG [Fam2.2 aminoacylation ribozyme variant]
Ans: 0
